B1: library; numbered along this chain (parent)
chain: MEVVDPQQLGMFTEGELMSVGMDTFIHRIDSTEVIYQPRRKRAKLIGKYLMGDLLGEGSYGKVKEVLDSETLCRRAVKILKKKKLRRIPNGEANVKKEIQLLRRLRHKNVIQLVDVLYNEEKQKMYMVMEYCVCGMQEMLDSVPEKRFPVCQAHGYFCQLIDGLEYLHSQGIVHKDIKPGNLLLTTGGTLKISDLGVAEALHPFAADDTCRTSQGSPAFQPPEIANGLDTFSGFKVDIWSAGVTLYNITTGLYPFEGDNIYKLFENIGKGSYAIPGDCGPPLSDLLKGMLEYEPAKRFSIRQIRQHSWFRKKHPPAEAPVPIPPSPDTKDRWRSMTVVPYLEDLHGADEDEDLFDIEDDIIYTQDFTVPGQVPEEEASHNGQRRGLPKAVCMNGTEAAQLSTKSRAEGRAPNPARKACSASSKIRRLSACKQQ

Variants of: B1
Assay: STK11 functional score (HeLa growth suppression), rescaled enrichment; synonymous median = 1, nonsense median = 0 (normalised score)
Settings: with HeLa; variant type: missense
Give measured STK11 functional score for each item. Keep answers brief.
Write the value as a bare number.

May I ask what STK11 functional score has been recorded for `V150Q` ?
0.265

May I ask what STK11 functional score has been recorded for `L55M` ?
0.938

May I ask what STK11 functional score has been recorded for `P411E` ?
1.61

May I ask what STK11 functional score has been recorded for `L182N` ?
1.01

May I ask what STK11 functional score has been recorded for `H107G` ?
0.812

May I ask what STK11 functional score has been recorded for `N393A` ?
1.59

May I ask what STK11 functional score has been recorded for `D176C` ?
-0.0937

May I ask what STK11 functional score has been recorded for `Q399A` ?
1.11

May I ask what STK11 functional score has been recorded for `R331D` ?
1.24

May I ask what STK11 functional score has been recorded for `S31D` ?
1.28

May I ask what STK11 functional score has been recorded for `G288V` ?
0.518

May I ask what STK11 functional score has been recorded for `A206P` ?
1.24

May I ask what STK11 functional score has been recorded for `K146H` ?
1.49

May I ask what STK11 functional score has been recorded for `A397H` ?
1.64

May I ask what STK11 functional score has been recorded for `P339L` ?
0.979

May I ask what STK11 functional score has been recorded for `I360F` ?
0.809

May I ask what STK11 functional score has been recorded for `D68N` ?
1.31

May I ask what STK11 functional score has been recorded for `L245D` ?
-0.177

May I ask what STK11 functional score has been recorded for `L427R` ?
1.56

May I ask what STK11 functional score has been recorded for `Y126F` ?
0.719

May I ask what STK11 functional score has been recorded for `K403Y` ?
1.59

May I ask what STK11 functional score has been recorded for `G10Y` ?
1.18

May I ask what STK11 functional score has been recorded for `Y166A` ?
1.47

May I ask what STK11 functional score has been recorded for `T24A` ?
1.36

May I ask what STK11 functional score has been recorded for `D355W` ?
1.57

May I ask what STK11 functional score has been recorded for `L282H` ?
0.737

May I ask what STK11 functional score has been recorded for `Y118A` ?
0.627

May I ask what STK11 functional score has been recorded for `I361L` ?
1.31

May I ask what STK11 functional score has been recorded for `A389G` ?
1.46

May I ask what STK11 functional score has been recorded for `E256Y` ?
1.4

May I ask what STK11 functional score has been recorded for `E351Q` ?
1.28

May I ask what STK11 functional score has been recorded for `L195P` ?
1.49

May I ask what STK11 functional score has been recorded for `E317D` ?
1.57

May I ask what STK11 functional score has been recorded for `K97Q` ?
0.688

May I ask what STK11 functional score has been recorded for `S193E` ?
1.54

May I ask what STK11 functional score has been recorded for `Q399M` ?
0.653

May I ask what STK11 functional score has been recorded for `G385N` ?
1.59

May I ask what STK11 functional score has been recorded for `R297T` ?
-0.0209

May I ask what STK11 functional score has been recorded for `Y246D` ?
-0.149

May I ask what STK11 functional score has been recorded for `F309N` ?
-0.159

May I ask what STK11 functional score has been recorded for `Q100I` ?
1.64

May I ask what STK11 functional score has been recorded for `Q382C` ?
1.15

May I ask what STK11 functional score has been recorded for `C278Y` ?
0.449

May I ask what STK11 functional score has been recorded for `T249R` ?
1.28

May I ask what STK11 functional score has been recorded for `V133I` ?
1.24

May I ask what STK11 functional score has been recorded for `E376A` ?
1.4

May I ask what STK11 functional score has been recorded for `P222D` ?
-0.103

May I ask what STK11 functional score has been recorded for `L17H` ?
1.53

May I ask what STK11 functional score has been recorded for `M18Q` ?
1.28

May I ask what STK11 functional score has been recorded for `H202E` ?
1.47

May I ask what STK11 functional score has been recorded for `Q371W` ?
0.748

May I ask what STK11 functional score has been recorded for `D327Y` ?
1.36

May I ask what STK11 functional score has been recorded for `A397C` ?
1.04

May I ask what STK11 functional score has been recorded for `L386S` ?
1.45

May I ask what STK11 functional score has been recorded for `E396T` ?
1.08

May I ask what STK11 functional score has been recorded for `V338W` ?
0.683

May I ask what STK11 functional score has been recorded for `V114F` ?
1.03

May I ask what STK11 functional score has been recorded for `S59T` ?
1.32

May I ask what STK11 functional score has been recorded for `N412K` ?
0.831

May I ask what STK11 functional score has been recorded for `V20H` ?
1.44

May I ask what STK11 functional score has been recorded for `D115L` ?
1.19

May I ask what STK11 functional score has been recorded for `G233A` ?
1.3

May I ask what STK11 functional score has been recorded for `Q170V` ?
1.26

May I ask what STK11 functional score has been recorded for `K124G` ?
1.04

May I ask what STK11 functional score has been recorded for `A200T` ?
1.02

May I ask what STK11 functional score has been recorded for `S334V` ?
1.31

May I ask what STK11 functional score has been recorded for `G61H` ?
1.41

May I ask what STK11 functional score has been recorded for `S169W` ?
1.25
